Cited source: patent US20190127480A1

- test.system: T1, Soluble heterodimeric CD3 protein (hCD3-epsilon/hCD3-delta) with either a human Fc tag (hFcΔAdp/hFc) or a … (human, UniProt P07766 23-126; P04234 22-105)
- T1 construct: also called hCD3ε/δ; not shown: Fc tag: human (hFcΔAdp/hFc)
- T1 sequence (P07766 23-126 limits assumed, stated change not applied, chain 1 of 2): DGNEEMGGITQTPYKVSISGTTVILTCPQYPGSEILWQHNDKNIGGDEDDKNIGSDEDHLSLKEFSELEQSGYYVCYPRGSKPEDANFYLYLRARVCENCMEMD
- T1 sequence (P04234 22-105 limits assumed, stated change not applied, chain 2 of 2): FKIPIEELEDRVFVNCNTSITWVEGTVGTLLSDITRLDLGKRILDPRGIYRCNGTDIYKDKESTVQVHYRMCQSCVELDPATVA
- test.protocol: SPR Biacore 25C antigen-capture
The entries below come with measured kon values attached.
# value in M⁻¹ s⁻¹; strip the unit string

H2M3543N (antibody, mouse IgG2, V domains shown, H2M: mouse IgG2 Fc, human variable regions; divalent) VH: EVQLVESGGGLVQPGRSLRLSCAASGFTFDDYTMHWVRQAPGKGLEWVSDISWNSGSIGYADSVKGRFTVSRDNAKNSLYLQMNSLRGEDTALYYCAKDMSGYAHYGYYGMDVWGQGTTVTVSS VL: DIQMTQSPSSLSASVGDRVTITCRASQSIRNYLNWYQQKPGKVPKLLIYAASSLQSGVPSRFSGSGSGTDFTLTISSLQPEDFATYYCQQSYSNPPITFGQGTRLEIK    122000
H1H5764P (antibody, human IgG1, V domains shown, H1H: human IgG1 Fc; divalent) VH: QVQLVESGGGVVQPGRSLRLSCAASGFTFRSFGMHWVRQAPGKGLEWVAVISYDGNYKYYADSVKGRFTISRDNSKNTLYLQMNSLRAEDTAVHYCAKGAMVRGVPYNFYYGMDVWGQGTTVTVSS VL: DIQMTQSPSSLSASVGDRVTITCRASQVIRNDLGWYQQKPGKAPKRLIYAASSLQSGIPSRFSGSGSGTEFTLTISSLQPEDFATYYCLQHNSYPYTFGQGTKLEIK    350000
H1H5790B (antibody, human IgG1, V domains shown, H1H: human IgG1 Fc; divalent) VH: EVQLVESGGGVVQPGRSLRLSCAASGFTFSYYGMHWVRQAPGKGLEWVAVISFDGKNKYYADSVMGRFTISRDNSKNTLYLQMNSLRAEDSAVFFCARSYDILTGYGAGYSYHYGMDVWGQGTTVTVSS VL: AIQMTQSPSSLSASVGDRVTITCRASQRISSFLNWYQQKPGKAPKLLIYTASNLQNGVPSRFSGSGSGTDFTLTISSLQPEDFATYYCQQSYRTPLTFGGGTKVEIKR    925000
H1H5795B (antibody, human IgG1, V domains shown, H1H: human IgG1 Fc; divalent) VH: EVQLVESGAEVKKPGASVKVSCKTSGYSFIGYYIHWMRQAPGQGLEWMGWINPKSGVTNYAQRFQGRVTMTRDTSISTAYMELSRLKSDDTAVYFCARMGDGAVFDFWGQGTLVTVSS VL: DIQLTQSPSSLSASVGDRVTITCRASQRISSFLNWYQQKPGKVPKLLIYTASNLQNGVPSRFSGTGSGTDFTLTISSLQPEDFATYYCQQSYRTPLTFGGGTKVDIKR    1.58e+06

Alright, here's another binder for you.
Look up kon: H1H5793B (antibody, human IgG1, V domains shown, H1H: human IgG1 Fc; divalent) VH: QVQLVQSGTEVKKPGASMKVSCKASGYTFTGYYIHWVRQAPGQGLEWMGWINPNSDVTKYAQKFQGRVTLTRDTSISAAYIDLSRLRSDDTAIYYCARMGDGAVFDYWGQGTLVTVSS VL: DIQLTQSPSSLSASVGDRVTITCRASQRISSYLNWYQQKPGKAPKVLISVASSLQSGVPSRFSGSGFGTDFTLTISSLQPEDSASYYCQQSYNTPLTFGGGTKLEIKR
478000
